pIC50: −log10 of the molar value.
MEASUREMENT_LABEL: pIC50

Query: GET pIC50 where system = Tyrosine-protein kinase SYK (Homo sapiens, UniProt P43405) and item = CCN(CC)C/C=C/c1nc(O)c2c(ccc3nc(Nc4c(Cl)cccc4Cl)n(C)c32)c1C
Response: < 4.40

----------
MEASUREMENT_LABEL: IC50

Query: GET IC50 where system = Cyclin-dependent kinase 4 (Homo sapiens) and item = CCN(CC)C/C=C/c1nc(O)c2c(ccc3nc(Nc4c(Cl)cccc4Cl)n(C)c32)c1C
Sequence (P11802 whole entry): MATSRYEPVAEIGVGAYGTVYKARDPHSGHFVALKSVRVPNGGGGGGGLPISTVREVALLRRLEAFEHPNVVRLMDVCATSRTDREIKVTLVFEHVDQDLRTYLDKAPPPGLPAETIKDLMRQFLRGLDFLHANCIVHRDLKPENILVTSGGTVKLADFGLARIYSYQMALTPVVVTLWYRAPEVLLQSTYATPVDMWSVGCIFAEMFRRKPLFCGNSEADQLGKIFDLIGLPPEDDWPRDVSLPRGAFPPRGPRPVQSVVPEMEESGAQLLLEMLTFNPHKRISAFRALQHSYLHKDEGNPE
Response: > 100 µM

----------
Molecular target: Hepatocyte growth factor receptor (Homo sapiens, UniProt P08581)
Sequence (P08581 whole entry): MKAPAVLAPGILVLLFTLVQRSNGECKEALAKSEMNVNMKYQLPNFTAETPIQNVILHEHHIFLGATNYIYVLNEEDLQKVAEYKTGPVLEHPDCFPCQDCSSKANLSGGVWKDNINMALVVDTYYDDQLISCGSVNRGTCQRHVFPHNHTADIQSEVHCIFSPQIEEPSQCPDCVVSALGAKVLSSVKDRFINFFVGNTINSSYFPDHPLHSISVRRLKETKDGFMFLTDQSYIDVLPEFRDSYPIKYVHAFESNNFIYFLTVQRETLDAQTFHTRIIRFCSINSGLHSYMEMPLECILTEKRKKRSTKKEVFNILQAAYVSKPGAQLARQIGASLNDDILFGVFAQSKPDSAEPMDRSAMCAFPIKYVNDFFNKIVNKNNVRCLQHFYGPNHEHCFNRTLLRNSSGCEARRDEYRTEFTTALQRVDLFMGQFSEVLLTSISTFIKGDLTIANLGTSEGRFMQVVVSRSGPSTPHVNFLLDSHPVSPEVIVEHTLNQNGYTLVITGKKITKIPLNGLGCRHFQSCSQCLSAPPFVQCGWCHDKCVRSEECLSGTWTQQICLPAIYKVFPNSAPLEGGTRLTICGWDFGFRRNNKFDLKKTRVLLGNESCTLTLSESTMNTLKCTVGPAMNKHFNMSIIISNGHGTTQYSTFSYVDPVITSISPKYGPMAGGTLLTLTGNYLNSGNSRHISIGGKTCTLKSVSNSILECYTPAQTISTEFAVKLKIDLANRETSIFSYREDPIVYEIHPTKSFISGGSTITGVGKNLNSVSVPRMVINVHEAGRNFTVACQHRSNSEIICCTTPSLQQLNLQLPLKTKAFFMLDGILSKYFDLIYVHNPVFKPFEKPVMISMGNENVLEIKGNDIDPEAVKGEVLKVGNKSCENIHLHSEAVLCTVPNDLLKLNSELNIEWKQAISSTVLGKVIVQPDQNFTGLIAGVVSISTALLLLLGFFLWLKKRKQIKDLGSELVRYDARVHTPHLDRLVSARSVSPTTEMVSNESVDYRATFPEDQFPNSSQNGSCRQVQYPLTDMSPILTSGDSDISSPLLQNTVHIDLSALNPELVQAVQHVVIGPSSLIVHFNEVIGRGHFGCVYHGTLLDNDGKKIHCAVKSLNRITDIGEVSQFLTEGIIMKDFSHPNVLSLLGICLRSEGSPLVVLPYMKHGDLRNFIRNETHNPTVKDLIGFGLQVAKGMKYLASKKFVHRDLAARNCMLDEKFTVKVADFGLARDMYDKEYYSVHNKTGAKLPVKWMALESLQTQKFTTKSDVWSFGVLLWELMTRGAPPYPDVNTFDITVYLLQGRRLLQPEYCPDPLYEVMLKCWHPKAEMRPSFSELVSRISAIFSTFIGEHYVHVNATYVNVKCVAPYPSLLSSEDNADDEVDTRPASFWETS
Assay: Inhibition of Hepatocyte growth factor receptor
Assay type: cell-based
pIC50: −log10 of the molar value.
MEASUREMENT_LABEL: pIC50

Query: Give reported pIC50 value for CCN(CC)C/C=C/c1nc(O)c2c(ccc3nc(Nc4c(Cl)cccc4Cl)n(C)c32)c1C
Response: < 4.00

----------
Molecular target: Cyclin-dependent kinase 2 (Homo sapiens, UniProt P24941)
MEASUREMENT_LABEL: IC50

Query: Give reported IC50 value for CCN(CC)C/C=C/c1nc(O)c2c(ccc3nc(Nc4c(Cl)cccc4Cl)n(C)c32)c1C
Response: > 1 µM

----------
Molecular target: Glycogen synthase kinase-3 beta (Homo sapiens, UniProt P49841)
Sequence (P49841 whole entry): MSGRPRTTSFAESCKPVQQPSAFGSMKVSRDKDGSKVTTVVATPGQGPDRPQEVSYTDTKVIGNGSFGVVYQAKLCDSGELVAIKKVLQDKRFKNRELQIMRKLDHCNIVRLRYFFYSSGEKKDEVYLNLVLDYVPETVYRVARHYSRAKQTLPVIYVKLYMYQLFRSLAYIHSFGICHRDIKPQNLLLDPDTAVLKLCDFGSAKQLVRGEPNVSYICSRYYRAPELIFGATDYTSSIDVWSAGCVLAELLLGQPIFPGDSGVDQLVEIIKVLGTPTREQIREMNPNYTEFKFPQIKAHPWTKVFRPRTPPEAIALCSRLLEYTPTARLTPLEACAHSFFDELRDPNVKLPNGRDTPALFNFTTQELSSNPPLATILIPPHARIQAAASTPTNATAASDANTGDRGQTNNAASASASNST
pIC50: −log10 of the molar value.
MEASUREMENT_LABEL: pIC50

Query: GET pIC50 where system = Glycogen synthase kinase-3 beta (Homo sapiens, UniProt P49841) and item = CCN(CC)C/C=C/c1nc(O)c2c(ccc3nc(Nc4c(Cl)cccc4Cl)n(C)c32)c1C
Response: < 6.00

----------
Target: Tyrosine-protein kinase Lck (Homo sapiens)
Sequence (P06239 whole entry): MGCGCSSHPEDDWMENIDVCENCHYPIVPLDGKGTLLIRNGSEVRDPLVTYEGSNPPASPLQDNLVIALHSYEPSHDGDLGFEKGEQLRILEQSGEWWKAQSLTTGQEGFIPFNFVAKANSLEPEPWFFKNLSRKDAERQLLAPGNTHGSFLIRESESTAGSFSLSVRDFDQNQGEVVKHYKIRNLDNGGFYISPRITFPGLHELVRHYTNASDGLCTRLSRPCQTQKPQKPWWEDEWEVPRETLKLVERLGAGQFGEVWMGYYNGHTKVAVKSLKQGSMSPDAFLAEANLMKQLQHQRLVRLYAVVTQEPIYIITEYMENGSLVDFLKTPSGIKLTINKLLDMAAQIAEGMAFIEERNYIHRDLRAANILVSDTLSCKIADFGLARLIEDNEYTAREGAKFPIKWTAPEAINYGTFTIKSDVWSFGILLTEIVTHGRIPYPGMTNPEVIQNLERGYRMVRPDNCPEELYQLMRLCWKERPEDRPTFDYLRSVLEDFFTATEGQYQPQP
Would you mind telling me the reported IC50 of each entry?
The answer is to be given in nM; state only the numeric part.

Query: GET IC50 where system = Tyrosine-protein kinase Lck (Homo sapiens) and item = COC(=O)CCc1nc(O)c2c(ccc3nc(Nc4c(Cl)cccc4Cl)n(C)c32)c1C
Response: 360

Query: GET IC50 where system = Tyrosine-protein kinase Lck (Homo sapiens) and item = Cc1nc(O)c2c(ccc3nc(Nc4c(Cl)cccc4Cl)n(C)c32)c1CCO
Response: 27

Query: GET IC50 where system = Tyrosine-protein kinase Lck (Homo sapiens) and item = Cc1nc(O)c2c(ccc3nc(Nc4c(Cl)cccc4Cl)n(C)c32)c1CCC(=O)N1CCOCC1
Response: 120

Query: GET IC50 where system = Tyrosine-protein kinase Lck (Homo sapiens) and item = CCNC(=O)Cc1c(C)nc(O)c2c1ccc1nc(Nc3c(Cl)cccc3Cl)n(C)c12
Response: 460
